target: rat plasma DPP-IV (Rattus norvegicus, UniProt P14740); test: DPP-IV activity in rat plasma (modified Kubota assay); conditions: substrate H-Glycine-Proline-AMC, 8-point dose-response curves
Sequence (P14740 37-767 limits assumed): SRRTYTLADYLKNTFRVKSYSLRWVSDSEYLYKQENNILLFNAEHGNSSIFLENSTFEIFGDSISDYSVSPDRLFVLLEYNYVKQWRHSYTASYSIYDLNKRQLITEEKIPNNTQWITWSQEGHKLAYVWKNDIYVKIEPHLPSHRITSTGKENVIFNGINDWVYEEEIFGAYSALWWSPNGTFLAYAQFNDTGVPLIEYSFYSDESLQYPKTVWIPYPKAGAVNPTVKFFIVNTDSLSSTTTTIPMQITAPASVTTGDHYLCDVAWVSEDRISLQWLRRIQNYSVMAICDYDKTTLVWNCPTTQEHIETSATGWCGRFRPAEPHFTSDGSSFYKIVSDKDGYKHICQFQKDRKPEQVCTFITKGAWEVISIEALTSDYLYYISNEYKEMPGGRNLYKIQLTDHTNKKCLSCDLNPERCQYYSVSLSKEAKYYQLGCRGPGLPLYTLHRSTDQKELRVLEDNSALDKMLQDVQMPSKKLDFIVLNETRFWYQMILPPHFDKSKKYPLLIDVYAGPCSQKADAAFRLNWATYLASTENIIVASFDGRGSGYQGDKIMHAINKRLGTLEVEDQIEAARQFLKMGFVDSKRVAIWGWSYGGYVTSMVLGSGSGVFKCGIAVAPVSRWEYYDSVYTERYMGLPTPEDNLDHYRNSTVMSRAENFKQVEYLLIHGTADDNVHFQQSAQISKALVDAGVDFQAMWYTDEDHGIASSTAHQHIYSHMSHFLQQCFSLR
Counter-ions that a name gives are not always drawn.
measured_property: pIC50
Remember, pIC50 is on a log scale: it is -log10 of the molar concentration.

Recorded pIC50, per entry:
Please fill in: pIC50 reported for N#C[C@@H]1CCCN1C(=O)CNC1CCC(NS(=O)(=O)c2ccccc2)CC1 (stereo partly drawn) [Ex. 2M, monohydrochloride] = 8.22

Form: compound = N#C[C@@H]1CCCN1C(=O)CNC1CCC(Nc2ccnc(Cl)n2)CC1 (stereo partly drawn) [Ex. 2S, dihydrochloride] ; pIC50 = 8.70

Per the records, this compound ( CC(C)(CNc1ccc(Cl)cn1)NCC(=O)N1CCC[C@H]1C#N [Ex. 1, monohydrochloride] ) has pIC50 equal to 8.22

Just so you know, measured pIC50 for N#C[C@@H]1CCCN1C(=O)CNC1CCN(S(=O)(=O)c2ccc(Cl)cc2)CC1 [Ex. 3, monohydrochloride] came out at 6.97

Lab note: N#Cc1ccc(NC2CCC(NCC(=O)N3CCC[C@H]3C#N)CC2)cc1 (stereo partly drawn) [Ex. 2W, dihydrochloride] gave pIC50 of 8.15

Quick note, pIC50 for N#C[C@@H]1CCCN1C(=O)CNC1CCC(Oc2ccc(C(F)(F)F)cc2)CC1 (stereo partly drawn) [Ex. 2EE, monohydrochloride] landed at 7.34

The reported pIC50 of the compound N#C[C@@H]1CCCN1C(=O)CNC1CCC(Nc2nc3cc(Cl)ccc3s2)CC1 (stereo partly drawn) [Ex. 2Y, dihydrochloride] was 7.43

Value of measured pIC50 for the entry N#C[C@@H]1CCCN1C(=O)CNC1CCC(NC(=O)c2ccccc2)CC1 (stereo partly drawn) : 8.30

***
Value of pIC50 reported for the compound CC(C)(C)C(=O)NC1CCC(NCC(=O)N2CCC[C@H]2C#N)CC1 (stereo partly drawn) [Ex. 2U, monohydrochloride] is 7.85
